Hey, just so you know, these numbers are from patent US10660877B2.

# tested.target: human TLR7 (Homo sapiens (Human))
# Sequence (Q9NYK1 27-1049): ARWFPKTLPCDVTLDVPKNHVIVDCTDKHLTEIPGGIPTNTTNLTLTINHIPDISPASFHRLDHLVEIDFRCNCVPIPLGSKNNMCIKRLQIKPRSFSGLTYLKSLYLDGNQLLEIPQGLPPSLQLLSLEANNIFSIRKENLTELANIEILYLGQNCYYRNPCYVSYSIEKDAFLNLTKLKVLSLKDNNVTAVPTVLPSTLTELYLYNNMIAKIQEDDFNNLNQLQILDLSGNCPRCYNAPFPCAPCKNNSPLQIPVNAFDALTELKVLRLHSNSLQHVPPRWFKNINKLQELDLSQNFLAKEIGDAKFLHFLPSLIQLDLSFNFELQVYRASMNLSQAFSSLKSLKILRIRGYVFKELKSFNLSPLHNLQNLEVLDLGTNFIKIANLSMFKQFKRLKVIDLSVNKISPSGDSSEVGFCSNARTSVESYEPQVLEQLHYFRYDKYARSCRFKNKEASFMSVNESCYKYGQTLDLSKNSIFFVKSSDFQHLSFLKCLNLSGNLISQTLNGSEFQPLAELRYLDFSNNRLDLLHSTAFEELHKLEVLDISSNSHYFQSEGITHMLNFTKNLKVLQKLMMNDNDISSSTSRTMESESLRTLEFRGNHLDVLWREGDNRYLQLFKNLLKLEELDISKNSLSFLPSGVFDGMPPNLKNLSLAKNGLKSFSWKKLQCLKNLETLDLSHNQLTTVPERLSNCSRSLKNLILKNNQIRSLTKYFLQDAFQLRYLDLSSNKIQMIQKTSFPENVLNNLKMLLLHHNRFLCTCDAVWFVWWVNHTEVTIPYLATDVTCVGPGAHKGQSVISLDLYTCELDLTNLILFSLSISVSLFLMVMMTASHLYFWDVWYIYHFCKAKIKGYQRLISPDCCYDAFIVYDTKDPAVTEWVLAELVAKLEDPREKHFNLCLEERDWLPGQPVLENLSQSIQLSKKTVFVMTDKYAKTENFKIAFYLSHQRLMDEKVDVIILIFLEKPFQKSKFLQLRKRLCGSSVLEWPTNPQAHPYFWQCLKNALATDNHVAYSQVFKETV
# assay.notes: TLR7 inhibition reporter assay (HEK-Blue cells, SEAP reporter, gardiquimod stimulation)
# Type: cell-based
# assay.context: HEK-Blue cells overexpressing human TLR7, gardiquimod 7.5 μM
readout.name: IC50 (nM)
Write the number in nM without appending the unit.

// solved cases for IC50 follow
>>> data_value("CCc1c(-c2cc(C)nc(C)c2)[nH]c2ccc(C3CCN(C(=O)CNC)CC3)cc12")
6.6
>>> data_value("COc1cc(-c2[nH]c3ccc(C4CCNCC4)cc3c2C(C)C)ccn1")
11.8

query: Would you kindly share the measured IC50 for Cc1cc(-c2[nH]c3ccc(C4CCN(C(=O)CN(C)C5CC5)CC4)cc3c2C(C)C)cc(C)n1 ?
result: 13.9
